Cited source: paper PMC3876937

Sequence of the target: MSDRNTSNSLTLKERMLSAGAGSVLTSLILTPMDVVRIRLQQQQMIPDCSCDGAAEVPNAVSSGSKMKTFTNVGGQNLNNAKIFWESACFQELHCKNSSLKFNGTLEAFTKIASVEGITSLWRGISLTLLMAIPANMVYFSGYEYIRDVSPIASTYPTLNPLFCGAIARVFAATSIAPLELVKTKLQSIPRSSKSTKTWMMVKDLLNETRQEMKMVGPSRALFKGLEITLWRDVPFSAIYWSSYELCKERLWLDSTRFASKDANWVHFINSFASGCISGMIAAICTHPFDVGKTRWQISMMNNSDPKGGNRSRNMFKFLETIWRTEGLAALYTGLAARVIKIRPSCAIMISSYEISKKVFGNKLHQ
measured.endpoint: Kd (µM)
Express the result in µM but write the number alone.

Determine from records and report Kd for Cc1ncc(COP(=O)(O)O)c(C=O)c1O [pyridoxal 5′-phosphate]
0.7
